experiment: Half life in Beagle dog at 0.5 mg/kg, iv; type: ADME, organism-based, Canis lupus familiaris; set-up: dose 0.5 mg/kg, route intravenous; conditions: in vivo
readout.name: half-life (min)

> print(dat)
                                   molecule  readout.name  unit.annotation  reported.result
1  CN(Cc1ccccc1)C(=O)[C@@H](NC(=O)c1cc2cc(NC(=O)c3ccccc3-c3ccc(C(F)(F)F)cc3)ccc2n1C)c1ccccc1 [DIRLOTAPIDE]     half-life              min              300

====

assay: Plasma clearance in portal cannulated Beagle dog at 1 mg/kg, iv; format: ADME, organism-based, Canis lupus familiaris; set-up: dose 1 mg/kg, route intravenous
readout.name: clearance

> print(dat)
                                   compound  reported.result
1  CN(Cc1ccccc1)C(=O)[C@@H](NC(=O)c1cc2cc(NC(=O)c3ccccc3-c3ccc(C(F)(F)F)cc3)ccc2n1C)c1ccccc1 [DIRLOTAPIDE]    7.6 mL/min/kg

====

experiment: Half life in monkey at 0.5 mg/kg, iv; assay type: ADME, organism-based, Macaca mulatta; set-up: dose 0.5 mg/kg, route intravenous; conditions: rhesus monkey, in vivo
readout.name: half-life

> print(dat)
                                   compound  readout.name  reported.result
1  CN(Cc1ccccc1)C(=O)[C@@H](NC(=O)c1cc2cc(NC(=O)c3ccccc3-c3ccc(C(F)(F)F)cc3)ccc2n1C)c1ccccc1 [DIRLOTAPIDE]     half-life            6.7 h

====

system: CYP3A4; test: Metabolic stability in human liver microsome at 0.5 uM in presence of 1 uM CYP3A4 inhibitor ketoconazole; format: ADME; conditions: liver microsomes, with 1 uM ketoconazole (CYP3A4 inhibitor)
readout.name: half-life at 0.5 µM (h)

> print(dat)
                                   compound         readout.name  unit.annotation  reported.result
1  CN(Cc1ccccc1)C(=O)[C@@H](NC(=O)c1cc2cc(NC(=O)c3ccccc3-c3ccc(C(F)(F)F)cc3)ccc2n1C)c1ccccc1 [DIRLOTAPIDE]  half-life at 0.5 µM                h             6.15

====

experiment: AUC (0 to infinity) in Beagle dog at 1 mg/kg, iv; format: ADME, organism-based, Canis lupus familiaris; design: time infinity, dose 1 mg/kg, route intravenous; settings: plasma
readout.name: AUC(0-inf) (ng·h/mL)

> print(dat)
                                   molecule  reported.result
1  CN(Cc1ccccc1)C(=O)[C@@H](NC(=O)c1cc2cc(NC(=O)c3ccccc3-c3ccc(C(F)(F)F)cc3)ccc2n1C)c1ccccc1 [DIRLOTAPIDE]             3610

====

experiment: Half life in rat at 30 mg/kg, po; format: ADME, organism-based; set-up: dose 30 mg/kg, route oral; settings: in vivo
readout.name: half-life (h)

> print(dat)
                                   molecule  reported.result
1  CN(Cc1ccccc1)C(=O)[C@@H](NC(=O)c1cc2cc(NC(=O)c3ccccc3-c3ccc(C(F)(F)F)cc3)ccc2n1C)c1ccccc1 [DIRLOTAPIDE]              6.3

====

experiment: Volume of distribution at steady state in monkey at 0.5 mg/kg, iv; format: ADME, organism-based, Macaca mulatta; design: dose 0.5 mg/kg, route intravenous; settings: rhesus monkey, in vivo, read-out: Vdss
readout.name: Vd (L/kg)

> print(dat)
                                   compound  readout.name  unit.annotation  reported.result
1  CN(Cc1ccccc1)C(=O)[C@@H](NC(=O)c1cc2cc(NC(=O)c3ccccc3-c3ccc(C(F)(F)F)cc3)ccc2n1C)c1ccccc1 [DIRLOTAPIDE]            Vd             L/kg              2.2

====

assay: Tmax in Beagle dog at 5 mg/kg, po; assay type: ADME, organism-based, Canis lupus familiaris; parameters: dose 5 mg/kg, route oral; conditions: in vivo
readout.name: Tmax (h)

> print(dat)
                                   molecule  unit.annotation  reported.result
1  CN(Cc1ccccc1)C(=O)[C@@H](NC(=O)c1cc2cc(NC(=O)c3ccccc3-c3ccc(C(F)(F)F)cc3)ccc2n1C)c1ccccc1 [DIRLOTAPIDE]                h                3

====

assay: Permeability from apical to basolateral side of the Caco-2 cell membrane at 1 uM; format: ADME, cell-based; conditions: human
readout.name: Papp A→B at 1 µM (×10⁻⁶ cm/s)

> print(dat)
                                   compound      readout.name  reported.result
1  CN(Cc1ccccc1)C(=O)[C@@H](NC(=O)c1cc2cc(NC(=O)c3ccccc3-c3ccc(C(F)(F)F)cc3)ccc2n1C)c1ccccc1 [DIRLOTAPIDE]  Papp A→B at 1 µM              0.9

====

assay: Intrinsic clearance in human microsomes; assay type: ADME, Microsome
readout.name: CLint scaled (mL/min/kg)

> print(dat)
                                   compound  reported.result
1  CN(Cc1ccccc1)C(=O)[C@@H](NC(=O)c1cc2cc(NC(=O)c3ccccc3-c3ccc(C(F)(F)F)cc3)ccc2n1C)c1ccccc1 [DIRLOTAPIDE]               91

====

experiment: AUC (0 to t) in rat at 0.3 mg/kg, iv; assay type: ADME, organism-based; set-up: dose 0.3 mg/kg, route intravenous; conditions: plasma
readout.name: AUC(0-t)

> print(dat)
                                   molecule  reported.result
1  CN(Cc1ccccc1)C(=O)[C@@H](NC(=O)c1cc2cc(NC(=O)c3ccccc3-c3ccc(C(F)(F)F)cc3)ccc2n1C)c1ccccc1 [DIRLOTAPIDE]       51 ng·h/mL

====

experiment: Tmax in Beagle dog at 0.5 mg/kg, po; assay type: ADME, organism-based, Canis lupus familiaris; design: dose 0.5 mg/kg, route oral; settings: in vivo
readout.name: Tmax (h)

> print(dat)
                                   molecule  readout.name  reported.result
1  CN(Cc1ccccc1)C(=O)[C@@H](NC(=O)c1cc2cc(NC(=O)c3ccccc3-c3ccc(C(F)(F)F)cc3)ccc2n1C)c1ccccc1 [DIRLOTAPIDE]          Tmax                3

====

system: CYP2C9; assay: Metabolic stability in human liver microsome at 0.5 uM in presence of 5 uM CYP2C9 inhibitor sulfaphenazole; type: ADME; details: liver microsomes, with 5 uM sulfaphenazole (CYP2C9 inhibitor)
readout.name: half-life at 0.5 µM (min)

> print(dat)
                                   molecule  study.system  reported.result
1  CN(Cc1ccccc1)C(=O)[C@@H](NC(=O)c1cc2cc(NC(=O)c3ccccc3-c3ccc(C(F)(F)F)cc3)ccc2n1C)c1ccccc1 [DIRLOTAPIDE]        CYP2C9               47

====

assay: Cmax in rat at 30 mg/kg, po after 2.8 hrs; type: ADME, organism-based; design: dose 30 mg/kg, route oral; details: in vivo
readout.name: Cmax (ng/mL)

> print(dat)
                                   molecule  readout.name  reported.result
1  CN(Cc1ccccc1)C(=O)[C@@H](NC(=O)c1cc2cc(NC(=O)c3ccccc3-c3ccc(C(F)(F)F)cc3)ccc2n1C)c1ccccc1 [DIRLOTAPIDE]          Cmax               21

====

assay: Cmax in Beagle dog at 0.5 mg/kg, po; assay type: ADME, organism-based, Canis lupus familiaris; set-up: dose 0.5 mg/kg, route oral; settings: in vivo
readout.name: Cmax

> print(dat)
                                   molecule  readout.name  reported.result
1  CN(Cc1ccccc1)C(=O)[C@@H](NC(=O)c1cc2cc(NC(=O)c3ccccc3-c3ccc(C(F)(F)F)cc3)ccc2n1C)c1ccccc1 [DIRLOTAPIDE]          Cmax       31.1 ng/mL

====

test: Ratio of drug level in blood to plasma in rat; format: ADME, cell-free; conditions: blood and plasma, read-out: BPR
readout.name: blood plasma ratio

> print(dat)
                                   compound        readout.name  reported.result
1  CN(Cc1ccccc1)C(=O)[C@@H](NC(=O)c1cc2cc(NC(=O)c3ccccc3-c3ccc(C(F)(F)F)cc3)ccc2n1C)c1ccccc1 [DIRLOTAPIDE]  blood plasma ratio             0.64
